study_system: ATP-dependent RNA helicase DDX3X (Homo sapiens)
Sequence (O00571 whole entry): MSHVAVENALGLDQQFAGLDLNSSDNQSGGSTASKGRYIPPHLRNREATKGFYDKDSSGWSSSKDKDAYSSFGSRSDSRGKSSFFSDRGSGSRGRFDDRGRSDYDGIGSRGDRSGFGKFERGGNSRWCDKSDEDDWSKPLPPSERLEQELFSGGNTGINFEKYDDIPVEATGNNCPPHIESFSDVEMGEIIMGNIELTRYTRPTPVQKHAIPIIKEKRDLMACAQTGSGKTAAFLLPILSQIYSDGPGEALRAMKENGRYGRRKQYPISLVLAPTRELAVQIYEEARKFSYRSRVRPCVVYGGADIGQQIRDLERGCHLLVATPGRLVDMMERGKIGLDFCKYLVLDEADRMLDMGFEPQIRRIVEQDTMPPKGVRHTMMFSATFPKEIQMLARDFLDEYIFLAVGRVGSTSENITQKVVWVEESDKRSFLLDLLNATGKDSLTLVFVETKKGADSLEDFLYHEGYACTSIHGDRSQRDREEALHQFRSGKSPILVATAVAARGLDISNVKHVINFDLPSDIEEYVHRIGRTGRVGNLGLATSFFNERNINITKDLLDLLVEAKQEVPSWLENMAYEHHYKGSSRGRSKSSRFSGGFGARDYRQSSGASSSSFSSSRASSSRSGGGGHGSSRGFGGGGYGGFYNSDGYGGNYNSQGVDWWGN
assay_info: Inhibition of human recombinant DDX3 helicase activity expressed in Escherichia coli assessed as conversion of a 6-FAM-labeled double stranded RNA in to single stranded nucleic acid by laser scanning densitometric analysis
Quick reference: IC50 of the listed items.
The answer is to be given in µM; state only the numeric part.

**Q:** Any idea what its IC50 is? The compound is "Cc1ccccc1NC(=O)Nc1cccc(NC(=O)Nc2ccccc2C)c1"
**A:** 65

**Q:** Any idea what its IC50 is? The compound is "Cc1ccccc1NC(=O)Nc1cccc(N)c1"
**A:** 5

**Q:** Any idea what its IC50 is? The compound is "Cc1[nH]c2ccccc2c1C1=CC(c2ccccc2)=NN=C(c2ccccc2)C1"
**A:** 6

**Q:** Any idea what its IC50 is? The compound is "O=C(Nc1ccc(-c2nc3ccccc3[nH]2)cc1)c1cc2ccccc2o1"
**A:** 42
